- Test system: Fibroblast
- TEST_PROTOCOL: Multiplex assay against human fibroblast
- Format: toxicity, cell-based
- MEASUREMENT_CONDITIONS: 12 h, 1 µM, compound concentration 1 uM, replicate 1
Some compounds, each annotated with its measured Population Tubulin-Different-Phenotype (%).
Please give a number only; it is taken to be in %.

These recorded examples may help you get a feel for the data.
| COMPOUND | TGT | ENDPOINT_RESULT |
| --- | --- | --- |
| CN(C)C/C=C/C(=O)Nc1cc2c(Nc3ccc(F)c(Cl)c3)ncnc2cc1O[C@H]1CCOC1.O=C(O)/C=C\C(=O)O.O=C(O)/C=C\C(=O)O [AFATINIB DIMALEATE] | Fibroblast | 10 |
| c1ccc2oc(-c3csc(C4CCN(Cc5nc6ncccc6[nH]5)CC4)n3)cc2c1 | Fibroblast | 12 |
| CNC(=O)c1cc(Oc2ccc(NC(=O)Nc3cc(C(C)(C)C)nn3-c3ccc4ncccc4c3)c(F)c2)ccn1 | Fibroblast | 4 |
| COc1cc(N2CCC(N(C)C)CC2)ccc1Nc1ncc(Cl)c(Nc2ccccc2P(C)(C)=O)n1 | Fibroblast | 6 |
| CN(C)CCOc1ccc(-c2nc(-c3ccncc3)c(-c3ccc4c(c3)CC/C4=N\O)[nH]2)cc1 | Fibroblast | 12 |

Request: Kindly indicate its recorded Population Tubulin-Different-Phenotype (%). Item: CNC(=O)c1nn(C)c2c1C(C)(C)Cc1cnc(Nc3ccc(N4CCN(C)CC4)cc3)nc1-2
Response: 30

Request: Please give measured Population Tubulin-Different-Phenotype (%) of the following entry: Cc1nc(Cc2cccc(C(F)(F)F)c2)sc1-c1ccc(C(N)=O)nc1 [TP-024n]
Response: 33

Request: Return the recorded Population Tubulin-Different-Phenotype (%) value; entry: COc1cc2c(Nc3ccc(NC(=O)c4ccccc4)cc3)ncnc2cc1OCCCN1CCOCC1
Response: 41

Request: # return recorded Population Tubulin-Different-Phenotype (%) for entry O=C(O)c1ccc2cc(-c3ccc(O)c(C45CC6CC(CC(C6)C4)C5)c3)ccc2c1
Response: 60

Request: For the compound Cl.Cl.NC1(c2ccc(-c3nc4ccn5c(=O)[nH]nc5c4cc3-c3ccccc3)cc2)CCC1 , report Population Tubulin-Different-Phenotype (%).
Response: 6

====

- Tested on: U2OS
- TEST_PROTOCOL: Multiplex assay against U2OS
- Assay type: toxicity, cell-based
- MEASUREMENT_CONDITIONS: human, 24 h, 1 µM, compound concentration 1 uM, replicate 1
Rule: Population Healthy Nuclei (%) below 80% gives label 1. Equal to or above 80% gives label 0.

Some solved cases for reference:
| MOLECULE | TGT | LABEL_CLASS |
| --- | --- | --- |
| FC(F)c1nc2ccccc2n1-c1nc(N2CCOCC2)nc(N2CCOCC2)n1 | U2OS | label 0 |
| COc1cc2c(Nc3ccc(NC(=O)c4ccccc4)cc3)ncnc2cc1OCCCN1CCOCC1 | U2OS | label 1 |
| Cl.Cl.NC1(c2ccc(-c3nc4ccn5c(=O)[nH]nc5c4cc3-c3ccccc3)cc2)CCC1 | U2OS | label 0 |
| Cc1cn(-c2cc(NC(=O)c3ccc4c(c3)CN(c3cncnc3)C[C@@H]4C)cc(C(F)(F)F)c2)cn1 | U2OS | label 0 |
| CNC(=O)c1nn(C)c2c1C(C)(C)Cc1cnc(Nc3ccc(N4CCN(C)CC4)cc3)nc1-2 | U2OS | label 1 |
| CC(C)Oc1ccc(C(=O)N[C@H](CNC(=O)CN(C)C)Cc2ccc(-c3cn4cccc([C@H](C)O)c4n3)cc2)cc1Cl [GSK-923295A] | U2OS | label 1 |
| c1ccc2oc(-c3csc(C4CCN(Cc5nc6ncccc6[nH]5)CC4)n3)cc2c1 | U2OS | label 0 |
| CNc1oc(-c2cccc3ccccc23)nc1C#N | U2OS | label 1 |

Now for another entry.
Request: Please state whether Population Healthy Nuclei (%) is below 80% for O=C(O)c1ccc2cc(-c3ccc(O)c(C45CC6CC(CC(C6)C4)C5)c3)ccc2c1
Response: label 1

====

- System: HEK-293T
- TEST_PROTOCOL: Multiplex assay against HEK293T
- Type: toxicity, cell-based
- MEASUREMENT_CONDITIONS: human, 12 h, 1 µM, compound concentration 1 uM, replicate 1
# Population Fragmented Nuclei (%) values compiled below
Provide the measurement as a number trailed by its unit.

| MOLECULE | Population Fragmented Nuclei (%) |
| --- | --- |
| CCCn1c(=O)c2[nH]c(C34CC5CC(CC3C5)C4)nc2n(CCC)c1=O | 14% |
| CC(=O)c1cc(-c2cc(C(=O)NC3CC3)ccc2C)c2ncccn12 | 11% |
| Cl.Cl.Nc1ncnc2c1c(-c1cccc(OCc3ccccc3)c1)cn2[C@H]1C[C@@H](CN2CCC2)C1 | 13% |

Next:
Request: Look up and report measured Population Fragmented Nuclei (%) for this entry: CCC(=O)O[C@]1(C(=O)SCF)[C@H](C)C[C@H]2[C@@H]3C[C@H](F)C4=CC(=O)C=C[C@]4(C)[C@@]3(F)[C@@H](O)C[C@@]21C [FLUTICASONE PROPIONATE]
Response: 10%

====

- System: Fibroblast
- TEST_PROTOCOL: Multiplex assay against human fibroblast
- Type: toxicity, cell-based
- MEASUREMENT_CONDITIONS: 48 h, 10 µM, compound concentration 10 uM, replicate 1
QUANTITY_KIND: Population Normal (%)
Kindly answer with a numeric value in %, unit omitted.

The examples below pair each entry with its known result.
| MOLECULE | Population Normal (%) |
| --- | --- |
| O=C(O)c1ccc2cc(-c3ccc(O)c(C45CC6CC(CC(C6)C4)C5)c3)ccc2c1 [O-DEMETHYLATED ADAPALENE] | 79 |
| Cc1cc2c(cc1N1C(=O)c3cccc4c(CCCO)ccc(c34)C1=O)n(C)c(=O)n2C | 81 |
| CC(C)Oc1ccc(C(=O)N[C@H](CNC(=O)CN(C)C)Cc2ccc(-c3cn4cccc([C@H](C)O)c4n3)cc2)cc1Cl [GSK-923295A] | 53 |
| Cl.Cl.Nc1ncnc2c1c(-c1cccc(OCc3ccccc3)c1)cn2[C@H]1C[C@@H](CN2CCC2)C1 | 67 |

Let's switch to this molecule now.
Request: Please look at this molecule and report its Population Normal (%): CNc1oc(-c2cccc3ccccc23)nc1C#N
Response: 34

====

- Tested on: Fibroblast
- TEST_PROTOCOL: Multiplex assay against human fibroblast
- Format: toxicity, cell-based
- MEASUREMENT_CONDITIONS: 48 h, 1 µM, compound concentration 1 uM, replicate 2
Kindly note that classification relies on Total Cell Count with these boundaries: low bin: < 100; mid bin: ≥ 100 and < 200; high bin: ≥ 200

Past entries and their recorded results:
| COMPOUND | TGT | LABEL_CLASS |
| --- | --- | --- |
| CCc1cc2c(cc1CC)CC(NC[C@H](O)c1ccc(O)c3[nH]c(=O)ccc13)C2 | Fibroblast | low bin |
| O=C(O)c1ccc2cc(-c3ccc(O)c(C45CC6CC(CC(C6)C4)C5)c3)ccc2c1 | Fibroblast | low bin |
| COc1ccc(NS(=O)(=O)c2sc3ccc(Cl)cc3c2C)cc1N1CCNCC1.Cl | Fibroblast | high bin |
| Cc1cc2c(cc1N1C(=O)c3cccc4c(CCCO)ccc(c34)C1=O)n(C)c(=O)n2C | Fibroblast | mid bin |
| CNc1oc(-c2cccc3ccccc23)nc1C#N | Fibroblast | high bin |
| CCCn1c(=O)c2[nH]c(C34CC5CC(CC3C5)C4)nc2n(CCC)c1=O | Fibroblast | low bin |
| Cl.Cl.Nc1ncnc2c1c(-c1cccc(OCc3ccccc3)c1)cn2[C@H]1C[C@@H](CN2CCC2)C1 | Fibroblast | mid bin |
| CCC(=O)O[C@]1(C(=O)SCF)[C@H](C)C[C@H]2[C@@H]3C[C@H](F)C4=CC(=O)C=C[C@]4(C)[C@@]3(F)[C@@H](O)C[C@@]21C [FLUTICASONE PROPIONATE] | Fibroblast | mid bin |

Request: Which Total Cell Count category applies to COc1cc2c(NC3CCN(C(C)C)CC3)nc(N3CCC(F)(F)CC3)nc2cc1OCCCN1CCCC1 here?
Response: high bin

Request: Record CCn1c(-c2nonc2N)nc2cnc(Oc3cccc(NC(=O)c4ccc(OCCN5CCOCC5)cc4)c3)cc21 [GSK-269962A] — which class?
Response: low bin

====

- Test system: Fibroblast
- TEST_PROTOCOL: Incucyte cell viability with human fibroblast; note: filed as whole numbers so only -1 and 0 and 1 occur
- Type: toxicity, cell-based
- MEASUREMENT_CONDITIONS: 24 h, 10 µM, compound concentration 10 uM, replicate number 1, timepoint 24 hours
Each record here notes measured Growth Rate.
Lab note: record the figure alone, no unit after it.

| MOLECULE | Growth Rate |
| --- | --- |
| COc1ccc(COc2ccc(Cc3cnc(N)nc3N)cc2OC)cc1 [GW632580X] | 1 |
| COc1cccc(OC)c1-c1cc(C(=O)NC2(C(=O)O)C3CC4CC(C3)CC2C4)nn1-c1ccnc2cc(Cl)ccc12 (centres undefined) [REMINERTANT] | 1 |
| CCC(=O)N[C@H]1CC[C@@H](C(=O)N(C)c2ccc(-c3nc4ccccc4o3)cc2)C1 [BI 99179] | 0 |

Request: Look up and report measured Growth Rate for this entry: O=C(O)c1ccc2cc(-c3ccc(O)c(C45CC6CC(CC(C6)C4)C5)c3)ccc2c1 [O-DEMETHYLATED ADAPALENE]
Response: 0
